molecular target: Nuclear receptor subfamily 1 group I member 3 (Homo sapiens) (UniProt Q14994); test: qHTS assay to identify small molecule agonists of the constitutive androstane receptor (CAR) signaling pathway (AID 1224839); details: HepG2 hCAR CYP2B6-luciferase, agonist mode, 24 h; series mostly up to 92.4 µM;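 note: HepG2 cells stably carrying human CAR and a CYP2B6 luciferase reporter; nearly all actives have a fitted effect of over 15% in size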
Sequence (Q14994 whole entry, looked up): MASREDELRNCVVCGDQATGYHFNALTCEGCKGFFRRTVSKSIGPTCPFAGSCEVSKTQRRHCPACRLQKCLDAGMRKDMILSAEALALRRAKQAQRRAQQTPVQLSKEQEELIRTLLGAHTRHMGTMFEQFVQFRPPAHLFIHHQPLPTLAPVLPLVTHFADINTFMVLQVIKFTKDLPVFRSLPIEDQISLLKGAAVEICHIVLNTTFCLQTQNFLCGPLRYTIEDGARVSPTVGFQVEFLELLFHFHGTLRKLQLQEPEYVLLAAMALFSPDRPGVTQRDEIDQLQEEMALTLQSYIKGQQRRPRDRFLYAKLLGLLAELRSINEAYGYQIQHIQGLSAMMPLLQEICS
Records with an inconclusive call do not appear. Calls of active or inactive are those of the source. Calls come from the whole dose curve; as a rule, active = well fitted activation curve with a large enough effect in the repeat runs; inconclusive = weak or mixed curves; inactive = no such curve, though single readings can be large or run the other way.
Respond using exactly one of the listed classes: active, inactive

// below: answered compounds
CC(C)(Oc1ccc(Cl)cc1)C(=O)O	inactive
CC(=O)Oc1c(C)c(C)c2c(c1C)CC[C@@](C)(CCC[C@H](C)CCC[C@H](C)CCCC(C)C)O2	inactive
O=C(O)COCCN1CCN(C(c2ccccc2)c2ccc(Cl)cc2)CC1 (centres undefined)	inactive
CC1(C)NC(=O)N(c2ccc([N+](=O)[O-])c(C(F)(F)F)c2)C1=O	inactive
Cc1ccc(C)c(O)c1	inactive

Turning now to a further compound:
**Q:** Tell me the assay call for `CC(=O)[C@H]1CC[C@H]2[C@@H]3CC=C4C[C@@H](O)CC[C@]4(C)[C@H]3CC[C@]12C` please.
**A:** inactive

====

target: Cytochrome P450 2D6 (Homo sapiens) (UniProt P10635); experiment: Cytochrome P450 Family 2 Subfamily D Member 6 (CYP2D6) small molecule antagonists: luciferase reporter qHTS assay (AID 1671196); settings: P450-Glo CYP2D6 enzyme assay, luciferin luminescence, 1 h; series mostly up to 115 µM; note: nearly all actives have a fitted effect of over 50% in size
Sequence (P10635 whole entry, looked up): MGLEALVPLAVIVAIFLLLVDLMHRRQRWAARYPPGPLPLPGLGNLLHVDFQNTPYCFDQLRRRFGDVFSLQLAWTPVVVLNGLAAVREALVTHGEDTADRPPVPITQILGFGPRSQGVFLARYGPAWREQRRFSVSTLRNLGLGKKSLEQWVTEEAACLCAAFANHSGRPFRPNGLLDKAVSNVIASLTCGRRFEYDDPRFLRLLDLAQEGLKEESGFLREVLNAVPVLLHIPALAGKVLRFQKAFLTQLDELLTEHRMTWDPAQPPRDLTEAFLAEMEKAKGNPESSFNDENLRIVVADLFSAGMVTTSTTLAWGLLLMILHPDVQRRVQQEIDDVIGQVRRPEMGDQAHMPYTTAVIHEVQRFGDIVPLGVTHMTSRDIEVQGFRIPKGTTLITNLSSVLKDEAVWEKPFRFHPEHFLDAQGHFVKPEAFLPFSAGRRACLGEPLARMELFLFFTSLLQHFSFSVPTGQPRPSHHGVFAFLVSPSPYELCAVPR
Records with an inconclusive call do not appear. Active and inactive are the calls of the source. Calls come from the whole dose curve; as a rule, active = well fitted inhibition curve with a large enough effect in the repeat runs; inconclusive = weak or mixed curves; inactive = no such curve, though single readings can be large or run the other way.
The categories you may choose from are active, inactive

Past entries and their recorded results:
O=C(O)CCCCCCCCCCCC(=O)O	active
Brc1nc2ccccc2s1	inactive
C=C1C[C@H]2[C@@H]3C=C(C)C4=CC(=O)CC[C@]4(C)[C@H]3CC[C@]2(C)[C@@]1(OC(C)=O)C(C)=O	inactive

**Q:** Name the outcome recorded for `C/C=C/C(=O)N(CC)c1ccccc1C` in the assay.
**A:** inactive

**Q:** I'd appreciate the recorded outcome for `CC(=O)Oc1c(C)c(C)c2c(c1C)CC[C@@](C)(CCC[C@H](C)CCC[C@H](C)CCCC(C)C)O2` from this test.
**A:** inactive

**Q:** Lab log entry: CCCCCCCCCCC(CO)CCCCCCCC (stereo not drawn) — outcome as called in the assay?
**A:** inactive

**Q:** So what was the verdict on `OCCNCCO` in this test?
**A:** inactive

**Q:** Outcome logged for `OC[C@@H](O)[C@@H](O[C@@H]1O[C@H](CO)[C@H](O)[C@H](O)[C@H]1O)[C@H](O)[C@@H](O)CO` in this assay:
**A:** inactive

**Q:** What is the recorded call for this compound in the test? `c1ccc2cc3ccccc3cc2c1`
**A:** inactive

**Q:** Look up the recorded call for `Oc1ccc(C(c2ccc(O)cc2)C(Cl)(Cl)Cl)cc1` in this test.
**A:** inactive

**Q:** Given `C=CCCCCCCCCCC` , state the outcome it received in this test.
**A:** inactive

**Q:** Assay result, entry `OC[C@H]1O[C@@H]2O[C@H]3[C@H](O)[C@@H](O)[C@@H](O[C@H]4[C@H](O)[C@@H](O)[C@@H](O[C@H]5[C@H](O)[C@@H](O)[C@@H](O[C@H]6[C@H](O)[C@@H](O)[C@@H](O[C@H]7[C@H](O)[C@@H](O)[C@@H](O[C@H]1[C@H](O)[C@H]2O)O[C@@H]7CO)O[C@@H]6CO)O[C@@H]5CO)O[C@@H]4CO)O[C@@H]3CO` — outcome?
**A:** inactive

**Q:** Lab log entry: `O=C(O)c1ccc(O)cc1` — outcome as called in the assay?
**A:** inactive

**Q:** Per the assay record, what outcome was assigned to `CC(=O)[C@@]1(O)CC[C@H]2[C@@H]3C[C@H](C)C4=CC(=O)C=C[C@]4(C)[C@@]3(F)[C@@H](O)C[C@@]21C` ?
**A:** inactive

**Q:** Hello, I am checking results. What call was entered for `COC(=O)c1ccc(C)cc1` ?
**A:** inactive

**Q:** Assay outcome for `C1COCCN1` : what was it?
**A:** inactive

**Q:** What was the test verdict on `NC[C@H](O)c1ccc(O)c(O)c1` ?
**A:** inactive

**Q:** Answer briefly: the call reported for `CC(=O)O[C@]1(C(C)=O)CC[C@H]2[C@@H]3C=C(C)C4=CC(=O)CC[C@]4(C)[C@H]3CC[C@@]21C` in this assay.
**A:** inactive

**Q:** Outcome? `Cc1ccc([N+](=O)[O-])c(C)c1`
**A:** inactive

**Q:** Any idea what this test logged for `CC/C=C\C/C=C\C/C=C\CCCCCCCC(=O)O` ?
**A:** active

**Q:** // return assay outcome for `C=CCOC(=O)C(=C)C`
**A:** inactive

**Q:** Write down the call the test reported for this compound. Item: `[O-]/[N+](=N\O)c1ccccc1`
**A:** inactive

**Q:** Recorded call for CCOC(=O)C(C)Oc1ccc(Oc2cnc3cc(Cl)ccc3n2)cc1 (stereo not drawn) ?
**A:** active
